Reference for the values: patent US10307407B2

biological target: recombinant BRD4 BD1 (Homo sapiens, UniProt O60885); construct: recombinant BRD4 BD1 and BRD4 BD2 proteins; test: Competitive fluorescence-polarization (FP) binding assay, BRD4 BD1; conditions: FAM labeled probe 1.5 nM, protein 10 nM, pH 6.5
pIC50: −log10 of the molar value.
property-label: pIC50

(A) COc1cc2c(cc1-n1c(C)nnc1C)[nH]c1ncnc(Nc3cc(C4CC4)nn3C)c12
(B) COc1cc2c(cc1-c1c(C)noc1C)[nH]c1nc(N)nc(Nc3c4c(nn3C)CCC4)c12
(C) COc1cc2c(cc1-c1c(C)n[nH]c1C)[nH]c1ncnc(Nc3cc(C4CC4)nn3C)c12
Request: Rank entries according to their pIC50, from the largest number down. Dear reader, please state the labels in the requested order.
Response: B, C, A

(P) COCc1nc(Nc2cc(C3CC3)nn2C(C)C)c2c(n1)[nH]c1cc(-c3c(C)noc3C)c(OC)cc12
(Q) COc1cc2c(cc1-c1c(C)noc1C)[nH]c1nc(C)nc(Nc3cc(C4CC4)nn3-c3ccc(C(=O)O)cc3)c12
Request: Hey, between P and Q which has a smaller measured pIC50? Please indicate the selected item by its label.
Response: Q
(Q: 7.27, P: 8.41)
